Measured values drawn from patent US10774086B2 for this set.

parameter: IC50 (nM)
Field: numeric (nM). Do not append units.

Prompt: Output reported IC50 of the molecule CC(C)Oc1ccncc1NC(=O)c1ccnn2c(NCC3CC3)cnc12 on GSK3β (Homo sapiens (Human), UniProt P49841).
Sequence (P49841 whole entry, species assumed): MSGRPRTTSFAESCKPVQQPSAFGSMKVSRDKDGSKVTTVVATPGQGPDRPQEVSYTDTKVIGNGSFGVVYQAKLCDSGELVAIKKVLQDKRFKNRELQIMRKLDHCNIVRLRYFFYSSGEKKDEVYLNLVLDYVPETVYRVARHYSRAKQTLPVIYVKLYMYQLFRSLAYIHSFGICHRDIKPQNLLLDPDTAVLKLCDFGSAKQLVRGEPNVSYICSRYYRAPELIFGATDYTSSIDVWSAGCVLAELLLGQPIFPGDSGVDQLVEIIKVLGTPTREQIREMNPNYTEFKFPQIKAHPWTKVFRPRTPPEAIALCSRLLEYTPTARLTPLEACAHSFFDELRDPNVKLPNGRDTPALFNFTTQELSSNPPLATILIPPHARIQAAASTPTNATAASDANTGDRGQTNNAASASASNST
Response: 6.6

Prompt: Check GSK3β (Homo sapiens (Human), UniProt P49841) data and give IC50 for O=C(Nc1cnccc1N1CCC(F)CC1)c1ccnn2cc(-c3ccccc3)nc12 .
Response: 0.3

Prompt: // fetch IC50 for O=C(Nc1cncnc1OCC(F)(F)F)c1ccnn2cc(-c3ccccc3)nc12 ; system: GSK3β (Homo sapiens (Human), UniProt P49841)
Response: 3.6

Prompt: Give measured IC50 for CS(=O)(=O)c1ccncc1NC(=O)c1ccnn2cc(-c3ccccc3)nc12 (GSK3β (Homo sapiens (Human), UniProt P49841)).
Response: 1.5

Prompt: Answer with IC50 of O=C(Nc1cnccc1N1CCOCC1)c1ccnn2c(NCC3CC3)cnc12 measured for GSK3β (Homo sapiens (Human), UniProt P49841).
Response: 9

====

These records show log10 IC50 for GSK3β (Homo sapiens (Human), UniProt P49841).
# values: log10(IC50), units nM

Prompt: Dear colleague, please send me the reported log10 IC50 for O=C(Nc1cnccc1-c1ccc(F)cc1)c1ccnn2cc(-c3ccccc3)nc12 [Example 7] when you can.
Response: 0.20

Prompt: Using known records, supply log10 IC50 for C[C@@H]1COCCN1c1ccncc1NC(=O)c1ccnn2cc(-c3ccccc3)nc12 [Example 17]
Response: 0.53

Prompt: Read the entry Cc1ccncc1NC(=O)c1ccnn2c(NCC3CC3)cnc12 [Example 40] and write its reported log10 IC50.
Response: 1.80

Prompt: Provide log10 IC50 value for the following compound: O=C(Nc1cnccc1-c1ccc(F)cc1)c1ccnn2cc(C3CC3)nc12 [Example 30]
Response: 0.28

Prompt: Provide measured log10 IC50 value, entry: COc1cncc(NC(=O)c2ccnn3cc(-c4ccccc4)nc23)c1 [Example 19]
Response: 1.57

====

Please provide measured pIC50 for the entries that follow.
Convention used: pIC50 is expressed as -log10 of the molar concentration.

Prompt: Report pIC50 on GSK3α (Homo sapiens (Human)) for this entry: CC(C)Oc1ccncc1NC(=O)c1ccnn2c(NC(=O)C3CC3)cnc12 [Example 46]
Response: 7.29

Prompt: Give the observed pIC50 of C[C@H]1COCCN1c1ccncc1NC(=O)c1ccnn2cc(-c3ccccc3)nc12 [Example 18] for GSK3α (Homo sapiens (Human)).
Response: 9.52

Prompt: Provide GSK3α (Homo sapiens (Human)) pIC50 reading for CC1CN(c2cc(F)ncc2NC(=O)c2ccnn3cc(-c4ccccc4)nc23)CCO1 (stereo not drawn) [Example 21] .
Response: 9.70

====

- assayed_target: GSK3α (Homo sapiens (Human))
pIC50: −log10 of the molar value.
The label depends only on pIC50: fulfilled if it is at least 9, not fulfilled if it is smaller.

Prompt: Test whether the compound O=C(Nc1cnccc1N1CCC(F)CC1)c1ccnn2cc(-c3ccccc3)nc12 records pIC50 of 9 or higher.
Response: fulfilled

Prompt: Would you say O=C(Nc1cnccc1OCC(F)(F)F)c1ccnn2cc(-c3ccccc3)nc12 shows pIC50 at minimum 9?
Response: fulfilled

Prompt: Hi, just wondering whether CC(C)Oc1ccncc1NC(=O)c1ccnn2cc(-c3ccccc3)nc12 shows pIC50 of 9 or higher.
Response: fulfilled

Prompt: Quick check: does O=C(Nc1cnccc1N1CCCCC1)c1ccnn2ccnc12 have pIC50 greater than or equal to 9?
Response: not fulfilled

Prompt: API: above_or_equal(metric=pIC50, cutoff=9) for item O=C(Nc1cnccc1-c1ccccc1)c1ccnn2c(NCC3CC3)cnc12
Response: not fulfilled

Prompt: Check if pIC50 >= 9 (inclusive). Item: CC(C)Oc1ccncc1NC(=O)c1ccnn2c(NC(=O)C3CCC3)cnc12
Response: not fulfilled

Prompt: API: above_or_equal(metric=pIC50, cutoff=9) for item COc1ccccc1-c1cn2nccc(C(=O)Nc3cnccc3N3CCOC(C)C3)c2n1 (stereo not drawn)
Response: fulfilled

Prompt: Is pIC50 for O=C(Nc1cnccc1N1CCC(F)(F)CC1)c1ccnn2c(NCC3CC3)cnc12 at or above 9?
Response: not fulfilled

Prompt: Exam item: decide whether the reported pIC50 for O=C(Nc1cnccc1-c1ccc(F)cc1)c1ccnn2cc(C3CC3)nc12 is at least 9.
Response: fulfilled

Prompt: Determine whether this compound has pIC50 no lower than 9: O=C(Nc1cnccc1N1CCOCC1)c1ccnn2cc(-c3ccc(C(F)(F)F)cc3)nc12
Response: fulfilled

Prompt: Record N#CC1CCN(c2ccncc2NC(=O)c2ccnn3cc(-c4ccccc4)nc23)CC1 ; criterion: pIC50 no lower than 9. Met?
Response: fulfilled

Prompt: Has O=C(Nc1cnccc1N1CCCCC1)c1ccnn2cc(-c3ccccc3)nc12 a recorded pIC50 greater than or equal to 9?
Response: fulfilled

====

For each record, write down the corresponding IC50.

Prompt: Find IC50 for COc1ccccc1-c1cn2nccc(C(=O)Nc3cnccc3N3CCOC(C)C3)c2n1 (centres unmarked) on GSK3β (Homo sapiens (Human), UniProt P49841) and write it down.
Response: 0.6 nM

Prompt: Report value: IC50, system: GSK3β (Homo sapiens (Human), UniProt P49841), compound: O=C(Nc1cnccc1N1CCCCC1)c1ccnn2cc(-c3ccccc3)nc12
Response: 1.1 nM

Prompt: Fill in: IC50 on GSK3β (Homo sapiens (Human), UniProt P49841), entry O=C(Nc1cnccc1N1CCC(F)(F)CC1)c1ccnn2cc(C3=CCCCC3)nc12
Response: 0.4 nM

Prompt: Give IC50; test system GSK3β (Homo sapiens (Human), UniProt P49841); compound O=C(Nc1cnc(Cl)cc1N1CCC(F)(F)CC1)c1ccnn2cc(-c3ccccc3)nc12
Response: 14 nM

Prompt: Quote GSK3β (Homo sapiens (Human), UniProt P49841) IC50 for entry O=C(Nc1cnccc1N1CCOCC1)c1ccnn2cc(-c3ccccc3)nc12 .
Response: 0.4 nM

Prompt: Enter measured IC50, system GSK3β (Homo sapiens (Human), UniProt P49841), for the compound shown: O=C(Nc1cccnc1)c1ccnn2c(NCC3CC3)cnc12
Response: 220 nM

Prompt: // output IC50; input O=C(Nc1cnccc1-c1ccccc1)c1ccnn2cc(-c3ccccc3)nc12 ; system GSK3β (Homo sapiens (Human), UniProt P49841)
Response: 3.6 nM

Prompt: Look up and report IC50, with GSK3β (Homo sapiens (Human), UniProt P49841) as system, for CC1CN(c2ccncc2NC(=O)c2ccnn3cc(-c4ccccc4)nc23)CCO1 (single isomer, unassigned)
Response: 0.8 nM

====

Give measured pIC50 for each item. Keep answers brief.
- assayed_target: GSK3α (Homo sapiens (Human), UniProt P49840)
- Sequence (P49840 whole entry, species assumed): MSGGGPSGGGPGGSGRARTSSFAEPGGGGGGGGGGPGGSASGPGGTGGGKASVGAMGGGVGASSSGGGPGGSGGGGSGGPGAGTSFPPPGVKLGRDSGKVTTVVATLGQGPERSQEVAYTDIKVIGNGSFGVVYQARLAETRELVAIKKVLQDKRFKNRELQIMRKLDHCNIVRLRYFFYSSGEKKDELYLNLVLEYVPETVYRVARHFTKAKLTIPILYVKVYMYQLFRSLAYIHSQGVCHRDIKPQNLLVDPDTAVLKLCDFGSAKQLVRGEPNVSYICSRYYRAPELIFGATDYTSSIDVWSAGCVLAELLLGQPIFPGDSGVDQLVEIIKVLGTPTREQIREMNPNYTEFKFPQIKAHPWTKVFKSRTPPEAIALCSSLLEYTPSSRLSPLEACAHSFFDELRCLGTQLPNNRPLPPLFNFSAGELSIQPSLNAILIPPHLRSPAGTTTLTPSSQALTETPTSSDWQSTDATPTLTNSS
pIC50 field: float, defined as -log10 of concentration (mol/L).

Prompt: Output reported pIC50 of the compound Cc1ccncc1NC(=O)c1ccnn2cc(-c3ccccc3)nc12 on GSK3α (Homo sapiens (Human), UniProt P49840).
Response: 9.10

Prompt: Write pIC50 of O=C(Nc1cnccc1-c1ccc(F)cc1)c1ccnn2cc(C3=CCCCC3)nc12 ; system used: GSK3α (Homo sapiens (Human), UniProt P49840)
Response: 8.92

Prompt: Find pIC50 for CCOc1ncncc1NC(=O)c1ccnn2cc(-c3ccccc3)nc12 on GSK3α (Homo sapiens (Human), UniProt P49840) and write it down.
Response: 9.00

Prompt: Recall the reported pIC50 of O=C(Nc1cncnc1OCC(F)(F)F)c1ccnn2cc(-c3ccccc3)nc12 when tested on GSK3α (Homo sapiens (Human), UniProt P49840).
Response: 9.00

Prompt: Enter recorded pIC50 with GSK3α (Homo sapiens (Human), UniProt P49840) for O=C(Nc1cnccc1-c1ccc(F)cc1)c1ccnn2cc(-c3ccccc3)nc12 here.
Response: 9.22

Prompt: State, for GSK3α (Homo sapiens (Human), UniProt P49840), measured pIC50 of the compound listed here: CC1CN(c2ccncc2NC(=O)c2ccnn3c(NCC4CC4)cnc23)CCO1 (stereo not drawn)
Response: 8.80
